Where do these numbers come from? They come from paper PMC9389372.

Molecular target: MAO-A (Homo sapiens, UniProt P21397)
Sequence (P21397 1-527): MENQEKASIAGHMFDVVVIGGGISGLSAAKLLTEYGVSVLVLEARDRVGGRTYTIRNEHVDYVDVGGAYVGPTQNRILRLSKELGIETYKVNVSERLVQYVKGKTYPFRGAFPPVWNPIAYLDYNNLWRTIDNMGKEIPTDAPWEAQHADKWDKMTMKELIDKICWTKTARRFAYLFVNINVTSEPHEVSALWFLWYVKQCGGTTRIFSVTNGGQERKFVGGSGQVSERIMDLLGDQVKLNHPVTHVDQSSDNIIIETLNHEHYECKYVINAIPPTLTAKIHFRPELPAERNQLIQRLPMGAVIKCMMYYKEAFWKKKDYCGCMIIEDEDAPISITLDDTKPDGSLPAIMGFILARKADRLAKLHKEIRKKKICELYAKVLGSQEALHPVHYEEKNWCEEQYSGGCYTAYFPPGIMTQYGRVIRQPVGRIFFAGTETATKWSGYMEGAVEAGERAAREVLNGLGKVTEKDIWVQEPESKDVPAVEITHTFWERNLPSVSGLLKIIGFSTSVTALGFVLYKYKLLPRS
Assay: MAO-A inhibition, in vitro fluorometric method
Format: biochemical
Details: read-out: MAO-A % inhibition
inhibition at 1000 µM by entry:
Observation type: inhibition at 1000 µM (%)

Compound | Measured value
C#CCN1CCN(Cc2ccc(C(=O)Nc3nc4ccccc4s3)cc2)CC1 | 57.6
COc1ccc2sc(NC(=O)c3ccc(CN4CCN(C(C)C)CC4)cc3)nc2c1 | 40.6
O=C(NCCN1CCOCC1)c1ccc(Cl)cc1 [Moc., moclobemide, reference compound] | 94.1
COc1ccc2sc(NC(=O)c3ccc(CN4CCN(C)CC4)cc3)nc2c1 | 60.5
CN(C)CCCN1CCN(Cc2ccc(C(=O)Nc3nc4ccccc4s3)cc2)CC1 | 64.9
